Attribution: paper PMC10397247

Molecular target: T1, 4H477-bN
T1 chain: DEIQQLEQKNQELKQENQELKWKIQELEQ
Test: two-hybrid library CCNG1;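 also: natural log of median RNA to DNA barcode read ratio; higher means stronger binding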
measured.property: interaction score

Guide cases for interaction score, answers given:
| binder | interaction score |
| --- | --- |
| DEIQQLEQKIQELEQKNQELKWKNQELEQ [4H319-bN] | 0.197 |
| DEIQQLEQKIQELKQENQELKWENQELKQ [4H348-bN] | -1.82 |
| DKIQQLKQKIQELKQKIQELEWENQELEQ [4H2915-bN] | -2.75 |
| DKIQQLKQENQELEQEIQELEWENQELKQ [4H2692-bN] | -0.405 |

P: DKIQQLEQKNQELEQEIQELEWKIQELKQ [4H2438-bN]
Q: DKIQQLKQENQELEQENQELKWKIQELEQ [4H2717-bN]
In terms of reported interaction score, does P or Q have the smaller number? Lab log: write the label of the selected item as the result.
P
(P: 0.509, Q: 1.4)
